Fold IC50 increase relative to wild-type reference
Biological target: HIV-1 JR-CSF Env G324A (HIV-1 isolate JR-CSF) (UniProt P20871)
Assay: cell-based or functional assay
Measurement Kind: Fold IC50 increase relative to wild-type

>>> recorded_result("PGT-125 (antibody, V domains shown) VH: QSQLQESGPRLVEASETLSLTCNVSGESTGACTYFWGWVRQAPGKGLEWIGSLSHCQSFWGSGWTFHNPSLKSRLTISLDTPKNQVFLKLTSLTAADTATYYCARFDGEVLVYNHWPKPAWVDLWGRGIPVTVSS VL: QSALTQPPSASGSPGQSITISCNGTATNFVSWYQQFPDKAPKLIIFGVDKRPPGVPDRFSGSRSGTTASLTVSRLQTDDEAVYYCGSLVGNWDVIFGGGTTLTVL")
"1.7 fold"
>>> recorded_result("PGT-130 (antibody, V domains shown) VH: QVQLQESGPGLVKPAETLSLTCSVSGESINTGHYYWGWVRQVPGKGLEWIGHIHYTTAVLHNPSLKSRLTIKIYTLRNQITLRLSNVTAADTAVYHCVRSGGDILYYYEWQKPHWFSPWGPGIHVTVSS VL: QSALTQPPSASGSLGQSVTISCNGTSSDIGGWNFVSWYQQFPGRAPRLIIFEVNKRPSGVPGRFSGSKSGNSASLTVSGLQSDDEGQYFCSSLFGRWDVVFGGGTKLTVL")
"> 50 fold"
>>> recorded_result("PGT-123 (antibody, V domains shown) VH: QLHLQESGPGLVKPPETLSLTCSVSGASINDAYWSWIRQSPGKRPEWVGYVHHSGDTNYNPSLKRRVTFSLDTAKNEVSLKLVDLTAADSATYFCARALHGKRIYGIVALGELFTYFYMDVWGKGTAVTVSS VL: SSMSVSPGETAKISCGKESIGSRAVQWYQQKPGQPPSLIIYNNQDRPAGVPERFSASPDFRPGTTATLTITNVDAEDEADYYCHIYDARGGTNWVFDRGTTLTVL")
"14.5 fold"
>>> recorded_result("PGT-126 (antibody, V domains shown) VH: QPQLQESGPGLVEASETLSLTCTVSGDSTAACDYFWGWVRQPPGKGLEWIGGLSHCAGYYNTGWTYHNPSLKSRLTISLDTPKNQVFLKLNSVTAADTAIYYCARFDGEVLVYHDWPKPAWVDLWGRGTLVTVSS VL: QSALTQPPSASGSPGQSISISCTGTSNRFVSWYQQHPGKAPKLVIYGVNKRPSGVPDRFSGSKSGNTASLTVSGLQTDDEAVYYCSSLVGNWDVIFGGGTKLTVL")
"3.3 fold"
>>> recorded_result("PGT-135 (antibody, V domains shown) VH: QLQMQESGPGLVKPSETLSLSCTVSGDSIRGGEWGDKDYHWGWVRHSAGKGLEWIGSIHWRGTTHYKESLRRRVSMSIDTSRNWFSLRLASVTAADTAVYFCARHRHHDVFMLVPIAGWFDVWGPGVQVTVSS VL: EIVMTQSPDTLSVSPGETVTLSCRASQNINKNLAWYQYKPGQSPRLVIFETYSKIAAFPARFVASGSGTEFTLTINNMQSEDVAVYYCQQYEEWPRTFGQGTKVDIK")
"0.4 fold"
